Target: α2AAR (α2A-adrenergic receptor) (Homo sapiens, UniProt P08913)
Construct: expressed in transfected cells; host or cells: HEK293
Sequence (P08913 1-465): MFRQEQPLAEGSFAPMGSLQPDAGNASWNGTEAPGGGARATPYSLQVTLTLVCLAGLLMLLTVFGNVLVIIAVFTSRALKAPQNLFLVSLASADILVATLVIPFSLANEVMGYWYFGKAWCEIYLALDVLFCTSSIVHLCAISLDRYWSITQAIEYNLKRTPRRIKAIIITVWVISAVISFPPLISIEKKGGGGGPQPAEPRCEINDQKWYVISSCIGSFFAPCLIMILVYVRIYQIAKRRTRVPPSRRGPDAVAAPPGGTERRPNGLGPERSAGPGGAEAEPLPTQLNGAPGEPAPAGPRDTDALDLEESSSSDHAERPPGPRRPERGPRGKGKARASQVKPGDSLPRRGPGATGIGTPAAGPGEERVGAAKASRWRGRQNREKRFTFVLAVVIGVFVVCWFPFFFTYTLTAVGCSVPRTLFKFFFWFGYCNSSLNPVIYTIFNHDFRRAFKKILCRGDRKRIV
Assay: α2AAR FLIPR assay (agonist activity)
Format: cell-based
Details: FLIPR, α2AAR cell line hosted in HEK293 cells; read-out: α2A agonist activity (EC50)
pEC50: −log10 of the molar value.
property: pEC50

Here are 3 molecules together with their reported answers.
Lab request: please report pEC50 under test system α2AAR (α2A-adrenergic receptor) (Homo sapiens, UniProt P08913) for Cc1cccc(C(Cc2ccc(NC(=O)C3COC3)cc2)c2c[nH]cn2)c1C (stereo not shown) [compound 200]
7.30 to 8.00

One more molecule: Cc1cccc(C(c2cccc(NC(=O)CCC3CCOCC3)c2)c2c[nH]cn2)c1C (stereo not shown) [compound 101]
7.30 to 8.00

Moving on to Cc1cccc(C(c2cccc(NC(=O)C3C4CC5CC(C4)CC3C5)c2)c2c[nH]cn2)c1C (stereo not shown) [compound 170]
6.60 to 7.30

Next item in the queue.
Param readout = pEC50; param system = α2AAR (α2A-adrenergic receptor) (Homo sapiens, UniProt P08913); param query = Cc1cccc(C(CN2CCC(NS(C)(=O)=O)CC2)c2c[nH]cn2)c1C (stereo not shown) [compound 168] ; response: value
6.60 to 7.30
